Attribution: the supplement of paper PMC6992640

Here, each record is paired with measured cell viability of combination data.
- System: WHIM30 (cells of a triple-negative basal-like breast cancer xenograft)
- procedure.summary: cell viability of combination (% of vehicle); higher = less cytotoxic
- setup.conditions: 1 µM; 72 h; partner dose: 10 nM

{"columns": ["compound", "study.system", "cell viability of combination"],
 "data": [
  ["C#Cc1cccc(Nc2ncnc3cc(OCCOC)c(OCCOC)cc23)c1.Cl [Erlotinib Hydrochloride] + CC(C)C[C@H](NC(=O)[C@H](CCc1ccccc1)NC(=O)CN1CCOCC1)C(=O)N[C@@H](Cc1ccccc1)C(=O)N[C@@H](CC(C)C)C(=O)[C@@]1(C)CO1 [Carfilzomib]", "WHIM30", 26.3],
  ["Clc1ccc(C(Cn2ccnc2)OCc2ccc(Sc3ccccc3)cc2)c(Cl)c1.O=[N+]([O-])O (centres undefined) [Fenticonazole Nitrate] + CC(C)C[C@H](NC(=O)[C@H](CCc1ccccc1)NC(=O)CN1CCOCC1)C(=O)N[C@@H](Cc1ccccc1)C(=O)N[C@@H](CC(C)C)C(=O)[C@@]1(C)CO1 [Carfilzomib]", "WHIM30", 21.1],
  ["C=C(c1ccc(C(=O)O)cc1)c1cc2c(cc1C)C(C)(C)CCC2(C)C [Bexarotene] + CC(C)C[C@H](NC(=O)[C@H](CCc1ccccc1)NC(=O)CN1CCOCC1)C(=O)N[C@@H](Cc1ccccc1)C(=O)N[C@@H](CC(C)C)C(=O)[C@@]1(C)CO1 [Carfilzomib]", "WHIM30", 25.7],
  ["COc1cc2nccc(Oc3ccc(NC(=O)NC4CC4)c(Cl)c3)c2cc1C(N)=O [Lenvatinib (E7080)] + CC(C)C[C@H](NC(=O)[C@H](CCc1ccccc1)NC(=O)CN1CCOCC1)C(=O)N[C@@H](Cc1ccccc1)C(=O)N[C@@H](CC(C)C)C(=O)[C@@]1(C)CO1 [Carfilzomib]", "WHIM30", 21.9]
]}

---

- System: HCI13 (cells of an ER-positive luminal breast cancer xenograft)
- procedure.summary: cell viability (% of vehicle); higher = less cytotoxic
- setup.conditions: 10 µM; 72 h
Structures can show the parent of a compound that is named as a salt.
Field: label. Allowed values: YES (cell viability < 100) or NO (cell viability >= 100).

{"columns": ["compound", "study.system", "category.label"],
 "data": [
  ["COC(=O)Nc1nc2ccc(S(=O)c3ccccc3)cc2[nH]1 (stereo not given)", "HCI13", "NO"],
  ["CN(C)CCCN1c2ccccc2Sc2ccc(Cl)cc21.Cl [Chlorpromazine HCl]", "HCI13", "YES"],
  ["CC(C)C(N)C(=O)OCCOCn1cnc2c(=O)nc(N)[nH]c21.Cl (stereo not given) [Valaciclovir HCl]", "HCI13", "YES"],
  ["COc1cc2c(cc1O)CCC1C2CCC2(C)C(O)CCC12 (stereo not given)", "HCI13", "NO"],
  ["C=CC(=O)Nc1cc(Nc2nccc(-c3cn(C)c4ccccc34)n2)c(OC)cc1N(C)CCN(C)C", "HCI13", "YES"],
  ["CCOC(=O)CCC(=O)OC1C(OC2C(C)C(OC3CC(C)(OC)C(O)C(C)O3)C(C)C(=O)OC(CC)C(C)(O)C(O)C(C)C(=O)C(C)CC2(C)O)OC(C)CC1N(C)C (stereo not given) [Erythromycin Ethylsuccinate]", "HCI13", "YES"],
  ["CNCC(O)c1ccc(O)c(O)c1.Cl (stereo not given) [Epinephrine HCl]", "HCI13", "NO"],
  ["C#C[C@]1(O)CC[C@H]2[C@@H]3CCC4=CCCC[C@@H]4[C@H]3C(=C)C[C@@]21CC", "HCI13", "YES"],
  ["Clc1ccc(CSC(Cn2ccnc2)c2ccc(Cl)cc2Cl)cc1.O=[N+]([O-])O (stereo not given) [Sulconazole Nitrate]", "HCI13", "YES"],
  ["CC#CC1(O)CCC2C3CCC4=CC(=O)CCC4=C3C(c3ccc(N(C)C)cc3)CC21C (stereo not given)", "HCI13", "YES"],
  ["CC12CCC(=O)C=C1C1CC1C1C2CCC2(C)C1C1CC1C21CCC(=O)O1 (stereo not given)", "HCI13", "YES"],
  ["C=C[C@]1(C)C[C@@H](OC(=O)CSC(C)(C)CNC(=O)[C@H](N)C(C)C)[C@]2(C)[C@H](C)CC[C@]3(CCC(=O)[C@H]32)[C@@H](C)[C@@H]1O [Valnemulin HCl]", "HCI13", "YES"],
  ["COC(=O)NC(C(=O)N1CCCC1c1ncc(-c2ccc(-c3ccc(-c4cnc(C5CCCN5C(=O)C(NC(=O)OC)C(C)C)[nH]4)cc3)cc2)[nH]1)C(C)C (stereo not given)", "HCI13", "NO"],
  ["C[N+]1(C)C2CCC1CC(OC(=O)C(O)c1ccccc1)C2.[Br-] (stereo not given) [Homatropine Methylbromide]", "HCI13", "NO"],
  ["Cc1cccc(N(C)C(=S)Oc2ccc3ccccc3c2)c1 [Tolnaftate]", "HCI13", "YES"],
  ["O=C(O)C1=CC(=NNc2ccc(S(=O)(=O)Nc3ccccn3)cc2)C=CC1=O", "HCI13", "NO"],
  ["CCOC(=O)NC1CCC2C(C1)CC1C(=O)OC(C)C1C2C=Cc1ccc(-c2cccc(F)c2)cn1 (stereo not given)", "HCI13", "YES"],
  ["NCC1OC(OC2C(N)CC(N)C(OC3OC(CO)C(O)C(N)C3O)C2O)C(N)CC1O (stereo not given)", "HCI13", "YES"],
  ["O=C(NCCO[N+](=O)[O-])c1cccnc1", "HCI13", "NO"],
  ["CC(=O)Oc1cc2c(s1)CCN(C(C(=O)C1CC1)c1ccccc1F)C2 (stereo not given)", "HCI13", "YES"],
  ["CCCC(CCC)C(=O)[O-].[Na+] [Valproic acid sodium salt (Sodium valproate)]", "HCI13", "NO"],
  ["CCC(C)C(=O)OC1CC(C)C=C2C=CC(C)C(CCC3CC(O)CC(=O)O3)C21 (stereo not given)", "HCI13", "NO"],
  ["O=C1OC(C(O)CO)C([O-])=C1O.[Na+] (stereo not given) [Sodium ascorbate]", "HCI13", "YES"],
  ["C#CC1(OC(C)=O)CCC2C3CCC4=CC(OC(C)=O)CCC4C3CCC21C (stereo not given) [Ethynodiol diacetate]", "HCI13", "NO"],
  ["CCN(CC)CCOC(=O)C(c1ccccc1)c1ccccc1.Cl [Adiphenine HCl]", "HCI13", "YES"],
  ["CCCCCCCCCCCCCCCCOP(=O)([O-])OCC[N+](C)(C)C", "HCI13", "YES"]
]}

---

- Test system: UCD52 (cells of a triple-negative basal-like breast cancer xenograft)
- procedure.summary: cell viability (% of vehicle); higher = less cytotoxic
- setup.conditions: 10 µM; 72 h
Where a name gives a salt, the structure may show the parent alone.
Field: label. Allowed values: 1 (yes) (cell viability < 100) or 0 (no) (cell viability >= 100).

{"columns": ["compound", "category.label"],
 "data": [
  ["CC(=O)N[C@H](Cc1ccc2ccccc2c1)C(=O)N[C@H](Cc1ccc(Cl)cc1)C(=O)N[C@H](Cc1cccnc1)C(=O)N[C@@H](CO)C(=O)N[C@@H](Cc1ccc(O)cc1)C(=O)N[C@H](CCCNC(N)=O)C(=O)N[C@@H](CC(C)C)C(=O)N[C@@H](CCCNC(=N)N)C(=O)N1CCC[C@H]1C(=O)N[C@H](C)C(N)=O", "1 (yes)"],
  ["CN(C)CC(c1ccc(O)cc1)C1(O)CCCCC1 (centres undefined)", "1 (yes)"],
  ["Cc1c(C(=O)Nc2ccc(N3CC(C)OC(C)C3)nc2)cccc1-c1ccc(OC(F)(F)F)cc1 (centres undefined)", "1 (yes)"],
  ["CCCCCCCCCCCCCCCC(=O)OCC=C(C)C=CC=C(C)C=CC1=C(C)CCCC1(C)C [Retinyl (Vitamin A) Palmitate]", "1 (yes)"],
  ["CC12CCC3c4ccc(OC(=O)c5ccccc5)cc4CCC3C1CCC2O (centres undefined) [Estradiol Benzoate]", "1 (yes)"],
  ["COC(=O)C=CC(=O)OC [Dimethyl Fumarate]", "1 (yes)"],
  ["CN(CC=CC#CC(C)(C)C)Cc1cccc2ccccc12.Cl [Terbinafine HCl]", "1 (yes)"],
  ["O=C(O)c1cc(-c2ccccc2)nc2ccccc12", "0 (no)"],
  ["CC12C=CC(=O)C=C1CCC1C2C(O)CC2(C)C1CCC2(O)C(=O)CO (centres undefined)", "0 (no)"],
  ["CCOC(=O)[C@H](CCc1ccccc1)N[C@@H](C)C(=O)N1[C@H](C(=O)O)C[C@H]2CCCC[C@@H]21", "0 (no)"],
  ["CC(C)OC(=O)C(C)NP(=O)(OCC1OC(n2ccc(=O)[nH]c2=O)C(C)(F)C1O)Oc1ccccc1 (centres undefined)", "1 (yes)"],
  ["CO/C(O)=N/[C@H](C(=O)N1CC2(CC2)C[C@H]1c1ncc(-c2ccc3c(c2)C(F)(F)c2cc(-c4ccc5nc([C@@H]6[C@H]7CC[C@H](C7)N6C(=O)[C@@H](/N=C(\\O)OC)C(C)C)[nH]c5c4)ccc2-3)[nH]1)C(C)C", "1 (yes)"],
  ["CC1(C)SC2C(NC(=O)C(N)c3ccccc3)C(=O)N2C1C(=O)O.O.O.O (centres undefined) [Ampicillin Trihydrate]", "1 (yes)"],
  ["CC(C)(C)c1cc(NC(=O)Nc2ccc(-c3cn4c(n3)sc3cc(OCCN5CCOCC5)ccc34)cc2)no1", "0 (no)"],
  ["Nc1ccc(S(=O)(=O)c2ccc(N)cc2)cc1", "0 (no)"],
  ["C#CC1(O)CCC2C3CCC4=CC(=O)CCC4C3CCC21C (centres undefined)", "1 (yes)"],
  ["CCCNC(C)C(=O)Nc1ccccc1C (centres undefined)", "1 (yes)"],
  ["CC(=O)N1CCN(c2ccc(OCC3COC(Cn4ccnc4)(c4ccc(Cl)cc4Cl)O3)cc2)CC1 (centres undefined) [Ketoconazole]", "1 (yes)"],
  ["Cn1cnc([N+](=O)[O-])c1Sc1ncnc2nc[nH]c12", "0 (no)"],
  ["CC(=O)NC1C(N=C(N)N)C=C(C(=O)O)OC1C(O)C(O)CO (centres undefined)", "1 (yes)"],
  ["CCCCCOc1ccc(-c2cc(-c3ccc(C(=O)NC4CC(O)C(O)NC(=O)C5C(O)C(C)CN5C(=O)C(C(O)CC(N)=O)NC(=O)C(C(O)C(O)c5ccc(O)c(OS(=O)(=O)[O-])c5)NC(=O)C5CC(O)CN5C(=O)C(C(C)O)NC4=O)cc3)no2)cc1.[Na+] (centres undefined) [Micafungin sodium]", "1 (yes)"],
  ["CC(C)C1=CC(=C2NNC(=O)N2c2ccc3c(ccn3C)c2)C(=O)C=C1O [Ganetespib (STA-9090)]", "1 (yes)"],
  ["CC(C)(Sc1cc(C(C)(C)C)c(O)c(C(C)(C)C)c1)Sc1cc(C(C)(C)C)c(O)c(C(C)(C)C)c1", "1 (yes)"]
]}
